Entries and their measured IC50 follow.
Target: OTR (Homo sapiens, UniProt P30559)
Construct: expressed in transfected cells; host or cells: OTR/HEK293 stably transfected cell line
Sequence (P30559 1-389): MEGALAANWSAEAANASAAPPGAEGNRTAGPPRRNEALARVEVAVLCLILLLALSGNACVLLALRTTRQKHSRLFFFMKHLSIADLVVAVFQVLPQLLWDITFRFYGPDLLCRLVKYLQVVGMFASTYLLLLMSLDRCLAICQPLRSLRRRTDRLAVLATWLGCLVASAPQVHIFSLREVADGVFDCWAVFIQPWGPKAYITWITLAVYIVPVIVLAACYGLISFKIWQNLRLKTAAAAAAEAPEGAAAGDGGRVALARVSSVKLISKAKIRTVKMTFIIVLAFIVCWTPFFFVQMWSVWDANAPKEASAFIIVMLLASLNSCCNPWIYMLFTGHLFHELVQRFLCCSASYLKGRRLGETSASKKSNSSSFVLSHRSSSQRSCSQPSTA
Experiment: Ca2+ mobilization in cells stably expressing OTR (FLIPR, antagonist mode)
Type: cell-based
Details: OTR/HEK293 stably transfected cell line
Write the value in nM as a bare number.

Previously resolved entries follow.
compound | observed value
CO/N=C1/C[C@@H]([C@@H](C)O)N(C(=O)c2ccc(-c3cccc(C#N)c3C)cc2)C1 (single isomer, unassigned) | 7.51
CO/N=C1/C[C@@H](CO)N(C(=O)c2ccc(-c3cccc4c3CCC4)cc2)C1 | 115
CO/N=C1/C[C@@H](CO)N(C(=O)c2ccc3c(c2)OCCc2c(C#N)cccc2-3)C1 | 228
CO/N=C1/C[C@@H](CO)N(C(=O)c2ccc(-c3cccc(C(F)F)c3C)cc2)C1 | 27.7
CO/N=C1/C[C@@H](CO)N(C(=O)c2ccc(-c3cccc(C)c3C)cc2C)C1 | 16

Query string: Look at this compound and give its reported IC50. CO/N=C1\C[C@@H](COCCO)N(C(=O)c2ccc(-c3ccccc3C)cc2)C1
Result string: 545

Query string: GET /values?readout=IC50&item= CO/N=C1/C[C@@H](CO)N(C(=O)c2ccc(-c3cc(F)cc(C#N)c3C)c3c2OCO3)C1
Result string: 59.9

---

Molecular target: OTR (Homo sapiens)
Sequence (P30559 1-389): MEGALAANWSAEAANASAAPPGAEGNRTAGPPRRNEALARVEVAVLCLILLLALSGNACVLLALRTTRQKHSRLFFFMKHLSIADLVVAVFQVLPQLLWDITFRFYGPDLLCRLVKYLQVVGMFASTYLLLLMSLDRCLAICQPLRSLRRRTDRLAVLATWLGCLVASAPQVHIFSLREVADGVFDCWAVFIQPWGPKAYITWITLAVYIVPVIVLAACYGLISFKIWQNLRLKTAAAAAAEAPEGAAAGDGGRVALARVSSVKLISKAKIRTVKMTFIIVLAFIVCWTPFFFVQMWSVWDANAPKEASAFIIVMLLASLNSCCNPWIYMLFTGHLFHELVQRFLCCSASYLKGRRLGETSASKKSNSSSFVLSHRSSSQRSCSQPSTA
Assay: Ca2+ mobilization in cells stably expressing OTR (FLIPR, antagonist mode)
Conditions: OTR/HEK293 stably transfected cell line
pIC50: −log10 of the molar value.
Please mark Met if the recorded pIC50 is equal to or greater than 7, and Not met if it falls below.

Please review the entries below; each comes with its answer.
compound | discrete label
CO/N=C1/C[C@@H](CO)N(C(=O)c2cc(F)c(-c3cccc(C#N)c3C)c3c2OCCO3)C1 [Example C0160] | Met
CO/N=C1\C[C@@H](CO)N(C(=O)c2ccc(-c3cccc(C#N)c3C)cc2C)C1 [Example A0244] | Met
CO/N=C1/C[C@@H](CO)N(C(=O)c2ccc(-c3cccc(C#N)c3C)c(F)c2)C1 [Example C0158] | Met
CO/N=C1/CCN(C(=O)c2ccc(-c3cccc(C#N)c3C)cc2)[C@H](CO)C1 [Example A0249] | Not met
CO/N=C1/C[C@@H](CO)N(C(=O)c2ccc(-c3ccc(C#N)c(C)c3C)cc2)C1 [Example C0075] | Met
CO/N=C1/C[C@@H](CNC(=O)CO)N(C(=O)c2ccc(-c3ccccc3C)cc2)C1 [Example C0008] | Not met

Query string: Check this compound for pIC50 at or above 7: COCCOc1cc(C(=O)N2C/C(=N\OC)C[C@H]2CO)ccc1-c1cccc(C#N)c1C [Example A0191]
Result string: Met

Query string: Assess whether reported pIC50 for CO/N=C1/C[C@@H](CO)N(C(=O)c2ccc(-c3cccc(C)c3C)c(OC3COC3)c2)C1 [Example A0147] sits at 7 or higher.
Result string: Met

Query string: Record CO/N=C1/C[C@@H](CO)N(C(=O)c2ccc(-c3cccc(C)c3C)cc2C#N)C1 [Example A0131] ; criterion: pIC50 no lower than 7. Met?
Result string: Not met

Query string: Could you tell me if the measured pIC50 of CO/N=C1\C[C@@H](CO)N(C(=O)c2ccc(-c3cccc(C)c3C#N)cc2)C1 [Example A0144] reaches 7 or more?
Result string: Not met

Query string: # bool: pIC50 of CO/N=C1/C[C@@H](CO)N(C(=O)c2cc(=O)n(-c3cccc(C)c3C)cn2)C1 [Example C0077] >= 7
Result string: Not met

---

Target: V1aR (Homo sapiens)
Test: Ca2+ mobilization in cells stably expressing V1aR (FLIPR, antagonist mode)
Settings: V1a-CHO stably transfected cell line
Description: Test Example 2. Determination of the Effect of the Compound of the Present Disclosure on Ca^2+ Mobilization in Cells Stably Expressing V1aR To measure the antagonistic effect of the compound of the present disclosure on V1aR activity expressed in the V1a-CHO stably transfected cell line. […] • 1. Cell plating: V1a-CHO cells were digested and harvested, resuspended and counted, and then inoculated into a 384-well cell plate at a density of: 1.2×10^4 cells/25 μL/well. […]
quantity measured: IC50 (µM)
Express your answer in µM, writing the number without its unit.

// solved cases for IC50 follow
compound | IC50, µM
CO/N=C1/C[C@@H](CO)N(C(=O)c2ccc(-c3cc(F)cc(C#N)c3C)c3c2OCCO3)C1 | 9.81
CO/N=C1/C[C@@H](CO)N(C(=O)c2ccc(-c3cccc(C)c3C)c(C(F)F)c2)C1 | 5.82
CO/N=C1/C[C@@H](C(C)(C)O)N(C(=O)c2ccc(-c3cccc(C#N)c3C)cc2)C1 | 1.87

Query string: Hi! What's the reported IC50 for CO/N=C1/C[C@@H](CO)N(C(=O)c2ccc(-c3cccc(C#N)c3C)c3c2cnn3C)C1 on V1aR (Homo sapiens)?
Result string: 1.48

Query string: # get_value(readout= IC50, system= V1aR (Homo sapiens)) for CO/N=C1/C[C@@H](CO)N(C(=O)c2ccc(-c3ccc(C#N)c(C)c3C)cc2)C1
Result string: 20

Query string: Request - read-out IC50 | tested on V1aR (Homo sapiens) | compound CO/N=C1/C[C@@H](CO)N(C(=O)c2ccc(-c3cccc(C#N)c3C)c3c2OCCN3C)C1
Result string: 0.587

Query string: I'm curious: which IC50 was measured for CO/N=C1/C[C@@H](CO)N(C(=O)c2ccc(-c3cccc(C)c3C)cc2)C1 tested on V1aR (Homo sapiens)?
Result string: 0.79

Query string: So what IC50 did CO/N=C1/C[C@@H](CO)N(C(=O)c2ccc(-c3c(F)ccc(C#N)c3C)c3c2OCCO3)C1 get with V1aR (Homo sapiens)?
Result string: 4.05

---

target: V1aR (Homo sapiens, UniProt P37288); construct: expressed in transfected cells; host or cells: V1a-CHO stably transfected cell line; test: Ca2+ mobilization in cells stably expressing V1aR (FLIPR, antagonist mode); type: cell-based; settings: V1a-CHO stably transfected cell line
Sequence (P37288 whole entry, species assumed): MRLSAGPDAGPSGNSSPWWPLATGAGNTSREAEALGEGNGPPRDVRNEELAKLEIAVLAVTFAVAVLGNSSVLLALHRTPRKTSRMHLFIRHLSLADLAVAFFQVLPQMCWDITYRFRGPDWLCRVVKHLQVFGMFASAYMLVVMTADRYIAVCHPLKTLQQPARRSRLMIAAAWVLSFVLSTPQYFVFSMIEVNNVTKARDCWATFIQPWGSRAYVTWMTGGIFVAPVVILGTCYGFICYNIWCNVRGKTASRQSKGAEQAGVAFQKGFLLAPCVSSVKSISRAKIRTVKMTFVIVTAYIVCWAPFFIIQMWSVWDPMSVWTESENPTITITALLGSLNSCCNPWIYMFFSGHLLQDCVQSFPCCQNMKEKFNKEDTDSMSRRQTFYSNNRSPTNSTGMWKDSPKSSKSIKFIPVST
quantity measured: IC50 (µM)
Answer with a number only, understood to be in µM.

Field: example entries. Status: answers known.
compound | system name | observed value
COCCOc1cc(C(=O)N2C/C(=N\OC)C[C@H]2CO)ccc1-c1cccc(C#N)c1C | V1aR (Homo sapiens, UniProt P37288) | 1.02
CO/N=C1/C[C@@H]([C@@H](C)O)N(C(=O)c2ccc(-c3cccc(C#N)c3C)cc2)C1 (single isomer, unassigned) | V1aR (Homo sapiens, UniProt P37288) | 0.602
CO/N=C1/C[C@@H](CO)N(C(=O)c2ccc(-c3cccc(C)c3C)c(OC)n2)C1 | V1aR (Homo sapiens, UniProt P37288) | 5.03

Now look at this one.
Query string: State the recorded IC50 for this entry: CON=C1CC(CO)N(C(=O)c2ccc(-c3cccc(C#N)c3C)c3c2OCO3)C1 (single isomer, unassigned) [Example C0099]
Result string: 5.28

---

Target: OTR (Homo sapiens)
Sequence (P30559 1-389): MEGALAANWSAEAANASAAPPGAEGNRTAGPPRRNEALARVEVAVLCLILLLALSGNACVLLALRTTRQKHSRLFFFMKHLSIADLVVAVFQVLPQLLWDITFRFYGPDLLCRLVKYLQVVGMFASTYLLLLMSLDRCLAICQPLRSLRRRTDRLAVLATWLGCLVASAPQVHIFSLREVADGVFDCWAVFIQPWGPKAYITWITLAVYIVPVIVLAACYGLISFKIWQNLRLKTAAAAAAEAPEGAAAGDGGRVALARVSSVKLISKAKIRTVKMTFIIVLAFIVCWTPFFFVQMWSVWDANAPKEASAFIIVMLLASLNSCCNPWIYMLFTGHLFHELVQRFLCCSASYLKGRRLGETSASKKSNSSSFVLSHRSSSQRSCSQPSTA
Experiment: Ca2+ mobilization in cells stably expressing OTR (FLIPR, antagonist mode)
Details: OTR/HEK293 stably transfected cell line
IC50 strictly less than 100 nM = yes. Otherwise no.

molecule | discrete label
CO/N=C1\C[C@@H](CO)N(C(=O)c2ccc(-c3cccc(C)c3C)c(C(=O)NC3COC3)c2)C1 [Example A0179] | no
CO/N=C1/C[C@@H](CO)N(C(=O)c2ccc(-c3cccc(C)c3C)c(C(=O)NC3COC3)c2)C1 [Example A0157] | no
CO/N=C1/C[C@@H](CO)N(C(=O)c2ccc(-c3cccc(C#N)c3C)c(OC)n2)C1 [Example A0215] | yes
CO/N=C1/C[C@@H](C(C)(C)O)N(C(=O)c2ccc(-c3cccc(C#N)c3C)cc2)C1 [Example C0164] | yes
CO/N=C1/C[C@@H](CO)N(C(=O)c2ccc(-c3cccc(C#N)c3C)c(OC)c2)C1 [Example A0242] | yes

Query string: Is 100 nM strictly greater than the molecule's reported IC50? molecule: CON=C1C[C@@H](C2(O)CC2)N(C(=O)c2ccc(-c3ccccc3C)cc2)C1 [Example A0066]
Result string: no

Query string: Does CO/N=C1/C[C@@H](CO)N(C(=O)c2cc(OC)c(-c3cccc(C#N)c3C)cn2)C1 [Example A0216] have IC50 strictly under 100 nM?
Result string: no
